# Test system: CCRIS mutagenicity, Ames/micronucleus/aberration tests
# PROTOCOL_DESCRIPTION: CCRIS mutagenicity studies
# TEST_CONTEXT: Test System: AMES SALMONELLA TYPHIMURIUM; Strain/Indicator: TA104; Metabolic Activation: RAT, LIVER, S-9, PHENOBARBITAL AND 5,6-BENZOFLAVONE; Method: PREINCUBATION
Activity calls are given as the source filed them. The rule behind the calls is not given here.
Respond only with the outcome that fits, drawn from T (active), F (inactive)

Example cases with answers are listed next.
>>> class("O=C1C=CC(=O)C(Cl)=C1")
"F"
>>> class("O=C1C=CC(=O)c2c(O)ccc(O)c21")
"T"
>>> class("O=C(O)/C=C\\C(=O)O")
"F"
>>> class("O=C1C=Cc2ccccc2C1=O")
"T"
>>> class("CC1=CC(=O)C=CC1=O")
"F"
>>> class("O=C1C=C(O)c2ccccc2C1=O")
"F"

Ask: Entry `O=C1C(Cl)=C(Cl)C(=O)c2ccccc21` : call = ?
Result: T

---

# Tested on: CCRIS mutagenicity, Ames/micronucleus/aberration tests
# PROTOCOL_DESCRIPTION: CCRIS mutagenicity studies
# TEST_CONTEXT: Test System: AMES SALMONELLA TYPHIMURIUM; Strain/Indicator: TA1535; Metabolic Activation: NONE; Method: STANDARD PLATE
Calls of active or inactive are those of the source. How the calls were made is not given here. Where a SMILES comes first, the peptide text is derived from it. The star is where a group is joined. For = O=C*
Bench note: report the call from active, inactive

Solved entries:
>>> class("COS(C)(=O)=O")
"active"
>>> class("O=C(O)c1cc(Br)cc2cccnc12")
"inactive"
>>> class("O=C(c1ccccc1)n1ncc(Cl)c(Cl)c1=O")
"inactive"
>>> class("O=C(O)c1cc(O)c2c(c1)C(=O)c1cccc(O)c1C2=O")
"inactive"
>>> class("CN1Cc2c(N)cccc2C(c2ccccc2)C1 (centres undefined)")
"inactive"
>>> class("Cc1cc(Cl)ccc1OCC(=O)O")
"inactive"
>>> class("[Cl][Sn][Cl]")
"inactive"
>>> class("BrCCBr")
"active"
>>> class("O=C(COc1cc(Cl)c(Cl)cc1Cl)N[C@@H](Cc1c[nH]c2ccccc12)C(=O)O")
"inactive"
>>> class("CCN(CC)c1ccc(N=Nc2ccc([N+](=O)[O-])cc2C#N)cc1")
"inactive"

Ask: What outcome does the record of this test show for `O=C1c2cccc(S(=O)(=O)O)c2C(=O)c2cccc([N+](=O)[O-])c21` ?
Result: inactive

Ask: What did this assay record as the result for `C=CC(=O)OCC(C)(C)COC(=O)C=C` ?
Result: inactive

Ask: Please state the recorded outcome for this compound: `O=c1c(Cl)c(Cl)cnn1S(=O)(=O)c1ccc(Cl)cc1`
Result: inactive

Ask: Lab log entry: c1ccc(Cc2ccc(CC3CO3)cc2)cc1 (centres undefined) — outcome as called in the assay?
Result: active

Ask: Which outcome did this test record for the compound CSCC[C@H](NC=O)C(=O)N[C@@H](Cc1ccccc1)C(=O)O (For-Met-Phe-OH) ?
Result: inactive

Ask: Status in this test for `CCN(CCCl)CCCNc1c2ccccc2nc2c1ccc1cccnc12` ?
Result: inactive

Ask: Can you look up the reported call for `O=[N+]([O-])c1cccc2nscc12` for me?
Result: active

Ask: What classification did `O=C(O)/C=C(/CC(=O)O)C(=O)O` end up with in this test?
Result: inactive

Ask: Hello, I am checking results. What call was entered for `Nc1n[nH]c(=S)s1` ?
Result: inactive

Ask: Given `Nc1ccc(O)c2c1C(=O)c1ccccc1C2=O` , state the outcome it received in this test.
Result: inactive

Ask: GET /call?item= `Nc1ccccc1` returns the recorded outcome of this test.
Result: inactive

Ask: Any idea what this test logged for `Cc1cc(/C=C/c2ccc3cc(N(C)C)ccc3[n+]2C)c(C)n1-c1ccccc1` ?
Result: inactive

Ask: Please indicate how the test categorized `C=O` .
Result: inactive

Ask: What call does the record list for NC1CCC(N)CC1 (centres undefined) ?
Result: inactive

---

# System: CCRIS mutagenicity, Ames/micronucleus/aberration tests
# PROTOCOL_DESCRIPTION: CCRIS mutagenicity studies
# TEST_CONTEXT: Test System: AMES SALMONELLA TYPHIMURIUM; Strain/Indicator: TA104; Metabolic Activation: NONE; Method: STANDARD PLATE
Active and inactive are the calls of the source. How the calls were made is not given here.
Thanks in advance; please answer with one of these: Yes for active, No for inactive

Would you please look over these solved cases?
>>> class("CC1(C)[C@H](C(=O)OCc2cccc(Oc3ccccc3)c2)[C@@H]1C=C(Cl)Cl")
"No"
>>> class("Cc1cc(=O)n(-c2ccccc2)n1C")
"No"
>>> class("CC/C=C/C=C/C=C/C=C/C=C/OC[C@@H](O)CO")
"Yes"

Ask: Would you mind telling me which call this test gave `CCBr` ?
Result: No

---

# Tested on: CCRIS mutagenicity, Ames/micronucleus/aberration tests
# PROTOCOL_DESCRIPTION: CCRIS mutagenicity studies
# TEST_CONTEXT: Test System: Ames Salmonella typhimurium; Strain/Indicator: TA1535; Metabolic Activation: Rat, Liver, S-9, Phenobarbital and 5,6-benzoflavone; Method: Preincubation
Calls of active or inactive are those of the source. No rule for the calls is given here.
Output constraint: value belongs to Yes = active, No = inactive

>>> class("CC12C=CC(C1)C1C(=O)OC(=O)C12 (centres undefined)")
"No"
>>> class("CCOC(=O)CC(=O)OCC")
"No"
>>> class("O=C1NC(=O)c2ccccc21")
"No"

# next compound below
Ask: What call does the record list for `ClC(Cl)(Cl)c1nc(-c2ccc3c(c2)OCO3)nc(C(Cl)(Cl)Cl)n1` ?
Result: Yes

---

# System: CCRIS mutagenicity, Ames/micronucleus/aberration tests
# PROTOCOL_DESCRIPTION: CCRIS mutagenicity studies
# TEST_CONTEXT: Test System: AMES SALMONELLA TYPHIMURIUM; Strain/Indicator: TA1535; Metabolic Activation: RAT, LIVER, S-9, AROCLOR 1254 (10 OR 30%); Method: PREINCUBATION
Active and inactive are the calls of the source. The rule behind the calls is not given here.
METRIC_NAME: mutagenic call

Examples from the recorded data:
>>> result("COC(=O)C(Cl)CCC(Cl)CCCCCC(Cl)CCC(Cl)CCCCCl (configuration not stated)")
"inactive; negative"
>>> result("CC(C)c1ccccc1OP(=O)(Oc1ccccc1)Oc1ccccc1")
"inactive; negative"
>>> result("COc1ccc2c3c1O[C@H]1[C@@H](O)C=C[C@H]4[C@@H](C2)N(C)CC[C@@]341")
"inactive; negative"
>>> result("COCCOC(C)=O")
"inactive; negative"
>>> result("COC=O")
"inactive; negative"

Ask: // query mutagenic call value for entry `CCc1ccccc1O`
Result: inactive; negative

Ask: Which mutagenic call value belongs to `Nc1cc(Cl)cc(S(=O)(=O)O)c1O` ?
Result: inactive; negative

---

# Test system: CCRIS mutagenicity, Ames/micronucleus/aberration tests
# PROTOCOL_DESCRIPTION: CCRIS mutagenicity studies
# TEST_CONTEXT: Test System: AMES SALMONELLA TYPHIMURIUM; Strain/Indicator: TA100; Metabolic Activation: RAT, LIVER, S-9, AROCLOR 1254; Method: STANDARD PLATE
Calls of active or inactive are those of the source. How the calls were made is not given here. Where a SMILES comes first, the peptide text is derived from it. The star is where a group is joined. For = O=C*
One label from this list, please: active, inactive

Worked examples, 5 molecules total:
>>> class("CC1CCC(NC(=O)N(CCCl)N=O)CC1 (stereo unspecified)")
"active"
>>> class("CCCCN(N)CCCC")
"inactive"
>>> class("CSCC[C@H](NC=O)C(=O)N[C@@H](Cc1ccccc1)C(=O)O (For-Met-Phe-OH)")
"inactive"
>>> class("NCC1CCC(C(=O)c2ccc(CCC(=O)O)cc2)CC1 (stereo unspecified)")
"inactive"
>>> class("CC(=O)c1c(C)c([N+](=O)[O-])c(C(C)(C)C)c([N+](=O)[O-])c1C")
"inactive"

Could you now consider this next molecule?
Ask: Could you check what this test reported for `C/C=C\c1ccc(OC)cc1OC` ?
Result: inactive

---

# System: CCRIS mutagenicity, Ames/micronucleus/aberration tests
# PROTOCOL_DESCRIPTION: CCRIS mutagenicity studies
# TEST_CONTEXT: Test System: AMES SALMONELLA TYPHIMURIUM; Strain/Indicator: TA98; Metabolic Activation: NONE; Method: PREINCUBATION
# Description: The CCRIS database contains chemical records with carcinogenicity, mutagenicity, tumor promotion, and tumor inhibition test results. It was developed by the National Cancer Institute (NCI). Data are derived from studies cited in primary journals, current awareness tools, NCI reports, and other sources. Test results have been reviewed by experts in carcinogenesis and mutagenesis. CCRIS provides historical information from the years 1985 - 2011. It is no longer updated. […]
Calls of active or inactive are those of the source. How the calls were made is not given here.
Outcome (select one): 1 = active, -1 = inactive

>>> class("Cc1cccc(C#N)c1")
-1
>>> class("O=S(=O)(c1ccc(O)cc1)c1ccc(O)cc1")
-1
>>> class("CS(=O)(=O)c1ccc(O)c(N)c1")
-1

Ask: Any idea what this test logged for `Nc1ccc2cccnc2c1` ?
Result: -1

Ask: Dear colleague, could you share the recorded outcome for `O=C(O)/C=C\C(=O)O` when you have a moment?
Result: -1

Ask: Test call for this compound, please: `O=CN(O)c1ccc2ccccc2c1`
Result: 1

Ask: Please let me know the test result on file for `[Cl][Hg][Cl]` .
Result: -1

Ask: Could you kindly confirm the outcome this assay logged for `Nc1ccc2c(c1)CN1C(=O)c3ccccc3C1=N2` ?
Result: 1
